meta.source: ChEMBL document CHEMBL4422673

target_entity: Kir3.1/Kir3.2 (Homo sapiens) (UniProt P48549+P48051)
assay_summary: Activation of human GIRK1/2 expressed in HEK293 cells co-expressing rat mGlu8 by thallium flux assay relative to control
Format: cell-based
observed_property: Emax

Below are 6 compounds. Give each one its Emax.
1. Cc1cc(NC(=O)Cc2coc(-c3ccccc3)n2)n(C2CCCCC2)n1
2. CC1(c2cc(NC(=O)Cn3nnc(-c4ccccc4)n3)n(C3CCCCC3)n2)CC1
3. Cc1cc(NC(=O)Cn2nnc(-c3ccnc(F)c3)n2)n(C2CCCCC2)n1
4. Cc1cc(NC(=O)Cn2nnc(-c3cccc(Cl)c3)n2)n(C2CCCCC2)n1
5. Cc1cc(NC(=O)Cn2nnc(-c3cccc(C#N)c3)n2)n(C2CCCCC2)n1
6. Cc1cc(NC(=O)Cn2nnc(-c3ccccc3)n2)n(C2CCOCC2)n1

[A]
["> 69%", "> 10%", "95%", "89%", "80%", "115%"]

Below are 6 compounds. Give each one its Emax.
1. Cc1cc(NC(=O)Cn2nnc(-c3cccc(F)c3)n2)n(C2CCCCC2)n1
2. Cc1cc(NC(=O)Cn2nnc(-c3cc(Cl)cc(Cl)c3)n2)n(C2CCCCC2)n1
3. Cc1cc(NC(=S)Cn2nnc(-c3ccccc3)n2)n(C2CCCCC2)n1
4. Cc1cc(NC(=O)Cn2nnc(-c3cccc(C(F)(F)F)c3)n2)n(C2CCCCC2)n1
5. Cc1cc(NC(=O)Cc2csc(-c3ccccc3)n2)n(C2CCCCC2)n1
6. Cc1cc(NC(=O)Cn2nnc(C3CC3)n2)n(C2CCCCC2)n1

[A]
1: 96%; 2: 82%; 3: 80%; 4: 86%; 5: 44%; 6: > 68%

Below are 8 compounds. Give each one its Emax.
1. Cc1cc(NC(=O)Cn2nnc(-c3ccc(F)cc3)n2)n(C2CCCCC2)n1
2. Cc1cc(NC(=O)Cc2cccc(-c3ccccc3)c2)n(C2CCCCC2)n1
3. Cc1cc(NC(=O)Cn2nnc(-c3cccc(F)n3)n2)n(C2CCCCC2)n1
4. Cc1cc(NC(=O)Cn2nnc(-c3ccccc3)n2)n(C2CCS(=O)(=O)C2)n1 (stereo unspecified)
5. Cc1cc(NC(=O)Cc2nnc(-c3ccccc3)s2)n(C2CCCCC2)n1
6. Cc1cc(NC(=O)Cn2nnc(-c3ccccc3)n2)n(CC2CCCCC2)n1
7. Cc1cc(NC(=O)Cc2ccc(-c3ccccc3)cn2)n(C2CCCCC2)n1
8. Cc1cc(NC(=O)Cn2nnc(-c3ccccc3)n2)n(C2CCC(F)(F)CC2)n1

[A]
1: 92%; 2: 72%; 3: > 83%; 4: 93%; 5: > 60%; 6: 77%; 7: 36%; 8: 68%

====

assay_summary: Fraction unbound in human plasma
Assay type: ADME, cell-free
Can you tell me Fu for the items I'm about to list?
Give bare numbers, in %.

Cc1cc(NC(=O)Cn2nnc(-c3ccccc3)n2)n(CC2CCCCC2)n1 ... 0.3
Cc1cc(NC(=O)Cn2nncc2-c2ccccc2)n(C2CCCCC2)n1 ... 0.4
Cc1cc(NC(=O)Cn2cc(-c3ccccc3)nn2)n(C2CCCCC2)n1 ... 3

Below are 2 molecules. Give each one its Fu.
1. Cc1cc(NC(=O)Cn2nnc(-c3ccccc3)n2)n(C2CCCCC2)n1
2. Cc1cc(NC(=O)Cn2nnc(-c3ccccc3)n2)n(C2CCC(F)(F)CC2)n1

[A]
1.1
1.5

Below are 2 molecules. Give each one its Fu.
1. Cc1cc(NC(=O)Cn2nnc(-c3cccc(F)c3)n2)n(C2CCCCC2)n1
2. Cc1cc(NC(=O)Cn2nnc(-c3ccccc3)n2)n(C2CCS(=O)(=O)C2)n1 (centres undefined)

[A]
1. 1
2. 3.7
